test system: Fibroblast; assay: Multiplex assay against human fibroblast; assay type: toxicity, cell-based; conditions: 24 h, 10 µM, compound concentration 10 uM, replicate 2
Give Population Hoechst High Intensity Objects (%) for every item shown.
A complete answer gives the number and then names the unit.

Param readout= Population Hoechst High Intensity Objects (%); system= Fibroblast; entry= c1ccc2oc(-c3csc(C4CCN(Cc5nc6ncccc6[nH]5)CC4)n3)cc2c1 ; returns value.
34%

Do the same for CCn1c(-c2nonc2N)nc2cnc(Oc3cccc(NC(=O)c4ccc(OCCN5CCOCC5)cc4)c3)cc21 [GSK-269962A] please
5%

Do the same for CC(C)N1CCC(C)(C)c2cc(C#Cc3ccc(C(=O)O)cc3)ccc21 please
66%

Do the same for COc1cc2c(Nc3ccc(NC(=O)c4ccccc4)cc3)ncnc2cc1OCCCN1CCOCC1 please
32%

Do the same for Cl.Cl.Nc1ncnc2c1c(-c1cccc(OCc3ccccc3)c1)cn2[C@H]1C[C@@H](CN2CCC2)C1 please
9%

Do the same for O=C(O)c1ccc2cc(-c3ccc(O)c(C45CC6CC(CC(C6)C4)C5)c3)ccc2c1 please
7%

Do the same for CCOc1cc(N2CCC(O)CC2)ccc1Nc1ncc2c(n1)N(C1CCCC1)CCC(=O)N2C please
28%

Do the same for CCC(=O)O[C@]1(C(=O)SCF)[C@H](C)C[C@H]2[C@@H]3C[C@H](F)C4=CC(=O)C=C[C@]4(C)[C@@]3(F)[C@@H](O)C[C@@]21C [FLUTICASONE PROPIONATE] please
8%

---

Give Population Healthy Nuclei (%) for every item shown.
test system: Fibroblast; experiment: Multiplex assay against human fibroblast; type: toxicity, cell-based; settings: 12 h, 10 µM, compound concentration 10 uM, replicate 1
Form entry: value (%) — number only.

Field request: Population Healthy Nuclei (%) | item: Cc1nc(Cc2cccc(C(F)(F)F)c2)sc1-c1ccc(C(N)=O)nc1 [TP-024n]
37

Do the same for CCc1cc2c(cc1CC)CC(NC[C@H](O)c1ccc(O)c3[nH]c(=O)ccc13)C2 please
45

Do the same for O=C(O)c1ccc2cc(-c3ccc(O)c(C45CC6CC(CC(C6)C4)C5)c3)ccc2c1 please
37

Do the same for Nc1ccc(C(=O)Nc2cccc(-c3nc(N4CCOCC4)c4oc5ncccc5c4n3)c2)cn1 please
28

---

tested on: U2OS; experiment: Incucyte cell viability with U2OS; format: toxicity, cell-based; details: human, 0 h, 10 µM, compound concentration 10 uM, replicate number 1, timepoint 0 hours; note: filed as whole numbers so only -1 and 0 and 1 occur
Give Growth Rate for every item shown.
# respond with the number and nothing more

Param readout= Growth Rate; system= U2OS; entry= CC(C)(C)c1cnc(CSc2cnc(NC(=O)C3CCNCC3)s2)o1 ; returns value.
0

Do the same for C[C@@H]1CCc2ncc(F)cc2[C@H]2CCCN2c2ccn3ncc(c3n2)C(=O)N1 please
1

Do the same for CCN(CC)CCCCC1CCN(CC(=O)N2c3ccccc3C(=O)Nc3cccnc32)CC1 please
0

Do the same for CNC(=O)c1cc(Oc2ccc(NC(=O)Nc3cc(C(C)(C)C)nn3-c3ccc4ncccc4c3)c(F)c2)ccn1 please
1

Do the same for CCc1cc2c(cc1CC)CC(NC[C@H](O)c1ccc(O)c3[nH]c(=O)ccc13)C2 please
1

Do the same for C[C@H](c1ccnc(Nc2nc3ccc(-c4cc(N(C)C)ncn4)cc3[nH]2)c1)N1CCN(C(=O)CC(F)(F)F)CC1 please
0

Do the same for CCC(=O)O[C@]1(C(=O)SCF)[C@H](C)C[C@H]2[C@@H]3C[C@H](F)C4=CC(=O)C=C[C@]4(C)[C@@]3(F)[C@@H](O)C[C@@]21C [FLUTICASONE PROPIONATE] please
0
